- Study target: full-length beta-Catenin (Uniprot ID P35222) (Homo sapiens, UniProt P35222)
- Construct: 10 nM full-length beta-Catenin (Uniprot ID P35222)
- Sequence (P35222 whole entry): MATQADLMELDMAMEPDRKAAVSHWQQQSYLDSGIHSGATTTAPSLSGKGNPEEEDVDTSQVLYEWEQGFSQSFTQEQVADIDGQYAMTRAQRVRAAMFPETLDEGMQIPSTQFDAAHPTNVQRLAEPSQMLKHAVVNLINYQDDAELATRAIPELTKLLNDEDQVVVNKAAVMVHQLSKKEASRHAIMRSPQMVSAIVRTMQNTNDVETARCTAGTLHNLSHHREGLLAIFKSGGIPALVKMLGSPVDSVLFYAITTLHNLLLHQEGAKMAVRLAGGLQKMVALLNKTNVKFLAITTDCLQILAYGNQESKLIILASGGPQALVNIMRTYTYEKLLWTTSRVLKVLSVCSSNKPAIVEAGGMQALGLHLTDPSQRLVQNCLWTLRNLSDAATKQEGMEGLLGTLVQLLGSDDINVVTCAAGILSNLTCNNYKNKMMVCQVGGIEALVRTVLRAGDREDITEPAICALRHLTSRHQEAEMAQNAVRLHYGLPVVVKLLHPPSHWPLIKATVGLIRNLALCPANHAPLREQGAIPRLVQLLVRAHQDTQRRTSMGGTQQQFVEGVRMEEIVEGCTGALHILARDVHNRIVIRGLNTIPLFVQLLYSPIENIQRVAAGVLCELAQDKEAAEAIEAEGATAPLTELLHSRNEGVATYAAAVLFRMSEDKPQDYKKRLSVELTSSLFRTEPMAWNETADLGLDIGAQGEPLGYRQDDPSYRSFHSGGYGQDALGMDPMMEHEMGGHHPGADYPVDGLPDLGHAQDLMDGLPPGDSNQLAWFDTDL
- Protocol details: Fluorescence polarization IC50 (beta-catenin / 5FAM-TCF4 10-53 competition)
- Format: binding
- Details: fluorescence polarization; read-out: beta-Catenin FP IC50
Test readout: IC50

Hey, full-length beta-Catenin (Uniprot ID P35222) (Homo sapiens, UniProt P35222) data for CC(=O)N1CCC[C@]12CC=CCCCC1(CCCC=CCCCOC(=O)N3CC[C@@](C(=O)N[C@@H](Cc4ccsc4)C(=O)N[C@@H](Cc4csc5ccccc45)C(=O)N[C@@H](CCC(N)=O)C(N)=O)(C3)NC(=O)[C@H](CCC(=O)N3CCC(N4CCN(C)CC4)CC3)NC(=O)[C@H](Cc3ccccc3)NC(=O)[C@H](C)NC(=O)[C@H](C)NC(=O)[C@H](CN(CC(=O)O)CC(F)(F)F)NC(=O)[C@H](CC(=O)O)NC1=O)NC(=O)[C@H](CC(C)(C)C)NC(=O)[C@H](CC(=O)O)NC2=O (stereo partly shown) [I-1937] : IC50 came out at 9 nM

====

Reported Solubility values follow for various molecules
- Protocol details: Solubility in PBS
- Type: physicochemical
Numeric only. Scale: µM

- Molecule: "CC(=O)N1CCC[C@]12CC=CCCCC1(CCCC=CCCCOC(=O)N3CC[C@@](C(=O)N[C@@H](Cc4ccsc4)C(=O)N[C@@H](Cc4csc5ccccc45)C(=O)N[C@@H](CO)C(N)=O)(C3)NC(=O)[C@H](CC(C)C)NC(=O)[C@H](Cc3ccccc3)NC(=O)[C@H](C)NC(=O)[C@H](C)NC(=O)[C@H](Cc3cccc(C(=O)O)c3)NC(=O)[C@H](CC(=O)O)NC1=O)NC(=O)[C@H](CC(C)(C)C)NC(=O)[C@H](CC(=O)O)NC2=O (some centres unmarked) [I-986]"
  Solubility / µM: 27
- Molecule: "CC(=O)N1CCC[C@]12CC=CCCCC1(CCCC=CCCCCCC[C@@](C)(C(=O)N[C@@H](Cc3ccccc3)C(=O)N[C@@H](Cc3csc4ccccc34)C(N)=O)NC(=O)[C@H](CCCNC(N)=O)NC(=O)[C@H](Cc3ccccc3)NC(=O)[C@H](C)NC(=O)[C@H](C)NC(=O)[C@H](CCC(=O)O)NC(=O)[C@H](CC(=O)O)NC1=O)NC(=O)[C@H](CC(C)C)NC(=O)[C@H](CC(=O)O)NC2=O (some centres unmarked) [I-629]"
  Solubility / µM: 40
- Molecule: "CC(=O)N1CCC[C@]12CC=CCCCC1(CCCC=CCCCCCC[C@@](C)(C(=O)N[C@@H](Cc3ccccc3)C(=O)N[C@@H](Cc3csc4ccccc34)C(=O)N[C@@H](CCC(N)=O)C(N)=O)NC(=O)[C@H](CC(N)=O)NC(=O)[C@H](Cc3ccccc3)NC(=O)[C@H](C)NC(=O)[C@H](C)NC(=O)[C@H](CCC(=O)O)NC(=O)[C@H](CC(=O)O)NC1=O)NC(=O)[C@H](CC(C)C)NC(=O)[C@H](CC(=O)O)NC2=O (some centres unmarked) [I-577]"
  Solubility / µM: 47
- Molecule: "CC(=O)N1CCC[C@]12CC=CCCCC1(CCCC=CCCCCCC[C@@](C)(C(=O)N[C@@H](Cc3ccsc3)C(=O)N[C@@H](Cc3csc4ccccc34)C(=O)N[C@@H](CCC(N)=O)C(N)=O)NC(=O)[C@H](CC(N)=O)NC(=O)[C@H](Cc3ccccc3)NC(=O)[C@H](C)NC(=O)[C@H](C)NC(=O)[C@H](CCC(=O)O)NC(=O)[C@H](CC(=O)O)NC1=O)NC(=O)[C@H](C)NC(=O)[C@H](CC(=O)O)NC2=O (some centres unmarked) [I-518]"
  Solubility / µM: 39

Okay, next one:
# molecule CC(=O)N1CCC[C@]12CC=CCCCC1(CCCC=CCCCOC(=O)N3CC[C@@](C(=O)N[C@@H](Cc4ccsc4)C(=O)N[C@@H](Cc4csc5ccccc45)C(=O)N[C@H](CO)[C@@H](C)O)(C3)NC(=O)[C@H](CC(C)C)NC(=O)[C@H](Cc3ccccc3)NC(=O)[C@H](C)NC(=O)[C@H](C)NC(=O)[C@H](CC(=O)O)NC(=O)[C@H](CC(=O)O)NC1=O)NC(=O)[C@H](CC(C)(C)C)NC(=O)[C@H](CC(N)=O)NC2=O (some centres unmarked) [I-1304] ; its Solubility = 10

====

Below: a set of entries, each annotated with reported IC50.
- Study target: full-length beta-Catenin (Uniprot ID P35222) (Homo sapiens, UniProt P35222)
- Construct: 10 nM full-length beta-Catenin (Uniprot ID P35222)
- Protocol details: Fluorescence polarization IC50 (beta-catenin / 5FAM-TCF4 10-53 competition)
- Type: binding
- Details: fluorescence polarization; read-out: beta-Catenin FP IC50
Supply the numeric figure in nM, leaving out any unit text.

Query CC(=O)N1CCC[C@]12CC=CCCCC1(CCCC=CCCCOC(=O)N3CC[C@@](C(=O)N[C@@H](Cc4ccccc4C(F)(F)F)C(=O)N[C@@H](Cc4csc5ccccc45)C(=O)N[C@@H](C)C(N)=O)(C3)NC(=O)[C@H](CC(C)C)NC(=O)[C@H](Cc3ccccc3)NC(=O)[C@H](C)NC(=O)[C@H](CCC(=O)N3CCN(CC(F)(F)F)CC3)NC(=O)[C@H](Cc3cccc(C(=O)O)c3)NC(=O)[C@H](CC(=O)O)NC1=O)NC(=O)[C@H](CC(C)(C)C)NC(=O)[C@H](CC(=O)O)NC2=O (some centres unmarked) yields IC50 of 11

====

Listed here are molecules together with their documented Solubility.
- Protocol details: Solubility in PBS
- Assay type: physicochemical
- Details: Solubility (uM)
Your answer should be a plain number; it is taken to be in µM.

See these solved cases before continuing.
- Molecule: "CC(=O)N1CCC[C@]12CC=CCCCC1(CCCC=CCCCCCC[C@@](C)(C(=O)N[C@@H](Cc3ccccc3Cl)C(=O)N[C@@H](Cc3csc4ccccc34)C(=O)N[C@@H](C(N)=O)[C@H](C)O)NC(=O)[C@H]([C@@H](C)O)NC(=O)[C@H](Cc3ccccc3)NC(=O)[C@H](C)NC(=O)[C@H](C)NC(=O)[C@H](CC(=O)O)NC(=O)[C@H](CC(=O)O)NC1=O)NC(=O)[C@H](CC(C)(C)C)NC(=O)[C@H](CC(=O)O)NC2=O (stereo partly drawn)"
  Recorded number: 28
- Molecule: "CC(=O)N1CCC[C@]12CC=CCCCC1(CCCC=CCCCOC(=O)N3CC[C@@](C(=O)N[C@@H](Cc4ccccc4Cl)C(=O)N[C@@H](Cc4csc5ccccc45)C(=O)N[C@@H](CCO)C(N)=O)(C3)NC(=O)[C@H](CCO)NC(=O)[C@H](Cc3ccccc3)NC(=O)[C@H](C)NC(=O)[C@H](C)NC(=O)[C@H](CN(CC(=O)O)CC(F)(F)F)NC(=O)[C@H](CC(=O)O)NC1=O)NC(=O)[C@H](CC(C)(C)C)NC(=O)[C@H](CC(=O)O)NC2=O (stereo partly drawn)"
  Recorded number: 41

// moving on: another record for Solubility
So, CC(=O)N1CCC[C@]12CC=CCCCC1(CCCC=CCCCCCC[C@@](C)(C(=O)N[C@@H](Cc3ccccc3)C(=O)N[C@@H](Cc3csc4ccccc34)C(=O)N[C@@H](CCC(N)=O)C(N)=O)NC(=O)[C@H](CC(N)=O)NC(=O)[C@H](Cc3ccccc3)NC(=O)[C@H](C)NC(=O)[C@H](C)NC(=O)[C@H](CNS(C)(=O)=O)NC(=O)[C@H](CC(=O)O)NC1=O)NC(=O)[C@H](C)NC(=O)[C@H](CC(=O)O)NC2=O (stereo partly drawn) ? Its Solubility was 44

====

- Protocol details: Solubility in PBS
- Format: physicochemical
Test readout: Solubility (µM)
Answer with a number only, understood to be in µM.

Guide cases for Solubility, answers given:
- Compound: "CC(=O)N1CCC[C@]12CC=CCCCC1(CCCC=CCCCCCC[C@@](C)(C(=O)N[C@@H](Cc3ccccc3)C(=O)N[C@@H](Cc3csc4ccccc34)C(=O)N[C@@H](CCC(N)=O)C(N)=O)NC(=O)[C@H](C)NC(=O)[C@H](Cc3cccc(C(F)(F)F)c3)NC(=O)[C@H](C)NC(=O)[C@H](C)NC(=O)[C@H](CC(=O)O)NC(=O)[C@H](CC(=O)O)NC1=O)NC(=O)[C@H](C)NC(=O)[C@H](CC(=O)O)NC2=O (stereo partly drawn) [I-374]"
  Solubility (µM): 49
- Compound: "COc1ccccc1C[C@H](NC(=O)[C@]1(C)CCCCCCC=CCCCC2(CCCC=CC[C@]3(CCCN3C(C)=O)C(=O)N[C@@H](CC(=O)O)C(=O)N[C@@H](C)C(=O)N2)C(=O)N[C@@H](CC(=O)O)C(=O)N[C@@H](CCC(=O)O)C(=O)N[C@@H](C)C(=O)N[C@@H](C)C(=O)N[C@@H](Cc2ccccc2)C(=O)N[C@@H](CC(N)=O)C(=O)N1)C(=O)N[C@@H](Cc1csc2ccccc12)C(=O)N[C@@H](Cc1c[nH]cn1)C(N)=O (stereo partly drawn) [I-511]"
  Solubility (µM): 29

Could you now consider this next compound?
Solubility in this record for CC(=O)N1CCC[C@]12CC=CCCCC1(CCCC=CCCCCCC[C@@](C)(C(=O)N[C@@H](Cc3ccccc3)C(=O)N[C@@H](Cc3csc4ccccc34)C(=O)N[C@@H](CCC(N)=O)C(N)=O)NC(=O)[C@H](CCC(N)=O)NC(=O)[C@H](Cc3cccc(C(F)(F)F)c3)NC(=O)[C@H](C)NC(=O)[C@H](C)NC(=O)[C@H](CC(=O)O)NC(=O)[C@H](CC(=O)O)NC1=O)NC(=O)[C@H](C)NC(=O)[C@H](CC(=O)O)NC2=O (stereo partly drawn) [I-379] : 50

Data provenance: patent US20240116985A1
